# ASSAY SUMMARY: yeast display, Sf9 membrane polyspecificity reagent, FACS + sequencing; frameworks hold sequencing errors
MEASURED PARAMETER: polyreactivity (PSR sort gate)

Some sequences with recorded polyreactivity (PSR sort gate):
RESIDUES	polyreactivity (PSR sort gate)
QVQLVESGGGLVQAGGSLRLSCAASGFIIQGNAMGWYRQAPGKERELVAAISSSVSTYYADSVKGRFTISRDNAKNTVYLQMNSLKPEDTAVYYCNAGFPLSLWLGDYWGQGTQVTVSS	low polyreactivity
QVQLVESGGGLVQAGGSLRLICAASGSIFADYVMGWYRQAPGKERELVAAITIDGGSTYYADSVKGRFTISRDNAKNTVYLQMNSLKPEDTAVYYCAADSSGRSDSWGQGTQVTVSS	low polyreactivity
QDQLVESGGGLVQAGGSLRLSCAASGRIFAPNAMGWYRQAPGKERELVAAITYSGTSTYADSVKGRFTISRDNAKNTVYLQMNSLKPEDTAVYYCAAEGSGVYYHSYDYWGQGTQVTVSS	low polyreactivity
QVQLVESGGGLVQAGGSLRLRCAASGSIFKRYAMGWYRQAPGKERELVAAISWGGGRTYYADSVKGRFTISRDTAKNTVYLQMNSLKPEDTAVYYCNRVGSYGQSNSYQGGDYWGQGTQVTVSS	high polyreactivity
QVQLVESAGCLVQAAASLRLSCSASGRTFYNYAMGWYRQAPGKEWELVASIRKNGGSTYYADSVKGRFTISRDNAKNTVYFQMNRLKPEDTAVYYCAAGRTVVTGSYYWGQGTQVTVSS	high polyreactivity
QVQLVESGGGLVQAGGSLRLSCAASGRILYYYAMGWYRQAPGKERELVAAITSGGSTYADSVKGRFTISRDNAKNTVYLQMNSLKPEDTAVYYCNARPVYGSRFYSAVRMEYWGQGTQVTVSS	low polyreactivity
QVQLVESGGGLVQAGGSLRLSCAASGSTFYKNAMGWYRQAPGKERELVARISGRGGSTYYADSVKCRFTISRDNAKNSVYLQMNSLKPEDTAVYYCNAVKYSSSAALYDYWGQGTQVTVSS	high polyreactivity
QFHLVESGGGLLQAGGSLRLSCAASGRIFYANDMGWYRQAPGKERELLAAISQSGGSTFYADSVKGRFTISRDNAKNTVYLQMNSLKPEDTAVYYCATDYYGPVYDLDYDYWGQGTQVSVSS	low polyreactivity
QVHLVESGGGLVQAGGSLRLSCSAYGSIFAYYAMGWYRQAPGKERELVAAIRSSGGSTYYADSVKGRFTISRDNANNTVYLQMNSLKPEVTAVYYCNVASRRIGPYVYWGQGTQVTVSS	high polyreactivity
QVQLEESGGGLVQAGGSLRLSCAASGLTLYKNGMGWYRQSPGKERELVAVISRSGGRTYYADSVKGRFTISRDNAKNTVYLQMNSLKPDDTAVYYCAARQYGPRYTYYYWGQGTQVTVSS	high polyreactivity

Kindly consider the entry below.
**Q:** Look up polyreactivity (PSR sort gate): QVQLVESGGGLVQAGGSLRLSCAASGSTFFRNAMGWYRQAPGKERELVAGITSGVTTYYADSVKGRFTISRDNAKNTVYLQMNSLKPEDTAVYYCAARRTGYRLRKSDYWGQGTQVTVSS
**A:** high polyreactivity
